- Test system: engineered BaF3 cell lines expressing either wild-type FLT3, FLT3-ITD or FLT3 (D835Y)
- protocol description: Cell viability and synergy, panel of engineered BaF3 cell lines
- Assay type: cell-based
- measurement context: Mus musculus, FIG. 10A, read-out: EC50 (resistant to venetoclax)
metric: EC50

Exam item: Which value of EC50 has been reported for CC1(C)CCC(CN2CCN(c3ccc(C(=O)NS(=O)(=O)c4ccc(NCC5CCOCC5)c([N+](=O)[O-])c4)c(Oc4cnc5[nH]ccc5c4)c3)CC2)=C(c2ccc(Cl)cc2)C1 [Venetoclax] in the records?
Marked response: > 1000 nM
